tested on: SW872; test: cells; assay type: functional, cell-based, Homo sapiens; conditions: Homo sapiens, SW872;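 also: growth inhibition of SW872 cells, read out by a viability assay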
Description: SANGER: Inhibition of human SW872 cell growth in a cell viability assay.
pIC50: −log10 of the molar value.
Endpoint Label: pIC50

* O=S(=O)(O)c1ccc2cc(/N=N/c3cc(S(=O)(=O)O)c4cccnc4c3O)ccc2c1 | < 4.80
* O=C1NC(=O)c2c1c(-c1ccccc1Cl)cc1[nH]c3ccc(O)cc3c21 | < 5.70
* COC(=O)[C@H](CCSC)NC(=O)c1ccc(NC[C@@H](N)CS)cc1-c1ccccc1 | < 5.99
* NC(=O)c1ccc(N(C(N)=O)c2c(F)cccc2F)nc1-c1ccc(F)cc1F [VX-702] | < 5.70
* O=C(NCCCNc1nc(Nc2cccc(NC(=O)N3CCCC3)c2)ncc1I)c1cccs1 [BX-795] | 5.57
* CN(C)CCOc1ccc(-c2nc(-c3ccncc3)c(-c3ccc4c(c3)CC/C4=N\O)[nH]2)cc1 [SB590885] | < 5.30

Data origin: ChEMBL document CHEMBL1201861
